Reported pEC50 values for the following molecules.
Target: hnNOS (Homo sapiens, UniProt P29475)
Sequence (P29475 whole entry): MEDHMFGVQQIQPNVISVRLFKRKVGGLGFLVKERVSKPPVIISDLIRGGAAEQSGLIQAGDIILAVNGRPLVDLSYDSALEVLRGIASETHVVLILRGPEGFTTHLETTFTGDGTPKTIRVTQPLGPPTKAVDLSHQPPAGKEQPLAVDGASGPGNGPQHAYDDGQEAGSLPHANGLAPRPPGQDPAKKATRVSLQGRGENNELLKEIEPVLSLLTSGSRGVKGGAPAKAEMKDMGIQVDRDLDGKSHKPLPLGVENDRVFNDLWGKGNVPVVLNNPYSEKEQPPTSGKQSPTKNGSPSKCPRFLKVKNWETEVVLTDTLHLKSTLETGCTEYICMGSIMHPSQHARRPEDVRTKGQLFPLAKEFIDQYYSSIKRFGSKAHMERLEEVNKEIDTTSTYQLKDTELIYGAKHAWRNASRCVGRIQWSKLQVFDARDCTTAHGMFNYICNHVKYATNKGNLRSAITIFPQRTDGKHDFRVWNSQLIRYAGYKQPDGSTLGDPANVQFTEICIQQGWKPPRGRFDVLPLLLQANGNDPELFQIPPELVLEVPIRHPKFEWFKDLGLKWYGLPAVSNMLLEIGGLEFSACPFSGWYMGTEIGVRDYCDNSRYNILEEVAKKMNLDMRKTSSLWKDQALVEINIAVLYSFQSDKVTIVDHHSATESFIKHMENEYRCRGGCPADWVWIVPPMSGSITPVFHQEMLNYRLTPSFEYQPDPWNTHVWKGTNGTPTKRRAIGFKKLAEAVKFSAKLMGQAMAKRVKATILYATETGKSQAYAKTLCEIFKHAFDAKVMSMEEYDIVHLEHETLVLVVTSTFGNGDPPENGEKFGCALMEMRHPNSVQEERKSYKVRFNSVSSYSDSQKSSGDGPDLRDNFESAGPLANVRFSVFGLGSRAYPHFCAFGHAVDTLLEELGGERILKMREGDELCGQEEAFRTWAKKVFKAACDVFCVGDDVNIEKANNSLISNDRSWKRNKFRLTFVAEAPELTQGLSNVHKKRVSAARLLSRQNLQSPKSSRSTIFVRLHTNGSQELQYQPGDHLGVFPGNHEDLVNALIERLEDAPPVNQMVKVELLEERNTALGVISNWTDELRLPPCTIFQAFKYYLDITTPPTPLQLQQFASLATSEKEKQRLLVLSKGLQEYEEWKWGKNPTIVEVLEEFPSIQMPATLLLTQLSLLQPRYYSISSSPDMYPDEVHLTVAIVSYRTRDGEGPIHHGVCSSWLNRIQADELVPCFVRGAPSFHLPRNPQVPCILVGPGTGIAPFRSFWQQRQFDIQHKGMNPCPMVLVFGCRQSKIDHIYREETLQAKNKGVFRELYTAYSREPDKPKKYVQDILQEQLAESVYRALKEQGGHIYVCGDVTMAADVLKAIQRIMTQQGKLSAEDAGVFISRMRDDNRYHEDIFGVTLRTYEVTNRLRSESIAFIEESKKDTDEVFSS
Test: DAN assay, hnNOS expressed in transiently transfected HEK293 cells
Details: HEK293 cells transiently transfected with hnNOS
From the text: The source of nitric oxide synthase (NOS) enzyme can be generated in several ways including induction of endogenous iNOS using cytokines and/or lipopolysaccharide (LPS) in various cell types known in the art. […] The level of nitrate or nitrite in the specimen can be quantified by any method known in the art which provides adequate sensitivity and reproducibility. […]
pEC50: −log10 of the molar value.
endpoint label: pEC50

molecule: Cc1cc(C2CCCN2C(=O)CNCc2ccc3c(c2)OCO3)nc(-n2ccnc2)n1 (stereo not drawn) [Example 5]
assayed system: hnNOS (Homo sapiens, UniProt P29475)
endpoint label: pEC50
result: < 6.00

molecule: Cc1cc(C2CCCN2C(=O)NCCc2ccc3c(c2)OCO3)nc(-n2ccnc2)n1 (stereo not drawn) [Example 4]
assayed system: hnNOS (Homo sapiens, UniProt P29475)
endpoint label: pEC50
result: 6.15

molecule: CN(CCCNCc1ccc2c(c1)OCO2)c1nc(-n2ccnc2)ns1 [Example 2]
assayed system: hnNOS (Homo sapiens, UniProt P29475)
endpoint label: pEC50
result: < 6.00
